Biological target: BCRP (Homo sapiens, UniProt Q9UNQ0)
Construct: host or cells: MDCKII
Sequence (Q9UNQ0 1-655): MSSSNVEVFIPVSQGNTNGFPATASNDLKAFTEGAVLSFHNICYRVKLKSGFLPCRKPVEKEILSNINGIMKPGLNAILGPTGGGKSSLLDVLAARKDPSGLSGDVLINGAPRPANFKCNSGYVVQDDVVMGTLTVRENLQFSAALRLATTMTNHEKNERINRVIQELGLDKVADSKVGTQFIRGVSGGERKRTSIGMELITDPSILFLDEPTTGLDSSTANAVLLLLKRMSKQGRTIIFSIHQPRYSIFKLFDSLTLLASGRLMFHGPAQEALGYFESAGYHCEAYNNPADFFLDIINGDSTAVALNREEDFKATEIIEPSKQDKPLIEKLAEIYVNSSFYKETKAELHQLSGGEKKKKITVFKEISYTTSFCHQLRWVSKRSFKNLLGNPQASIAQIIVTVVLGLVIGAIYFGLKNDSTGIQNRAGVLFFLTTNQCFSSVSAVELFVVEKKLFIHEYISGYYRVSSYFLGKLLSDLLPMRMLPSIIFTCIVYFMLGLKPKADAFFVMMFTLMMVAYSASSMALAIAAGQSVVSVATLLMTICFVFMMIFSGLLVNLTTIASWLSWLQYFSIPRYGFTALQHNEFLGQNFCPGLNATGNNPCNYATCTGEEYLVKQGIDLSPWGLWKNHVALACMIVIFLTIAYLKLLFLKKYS
Assay: Transporter inhibition, bidirectional permeability of prazosin in MDCKII-BCRP cells
Format: in vitro ADME
pIC50: −log10 of the molar value.
property measured: pIC50

Output measured pIC50 for this item: CCNC(C)Cc1cccc(C(F)(F)F)c1 (racemic) [FFA, reference compound] < 4.00
